# Test system: A204
# test.name: relative viability vs DMSO control (72 h) (fraction); higher = more viable cells
# experimental.context: 0.1235 µM
Answer each item with its documented relative viability.
In your answer, state the number alone without any accompanying words.

Record summary for COc1cc(Nc2ncc(F)c(Nc3ccc4c(n3)N(COP(=O)(O)O)C(=O)C(C)(C)O4)n2)cc(OC)c1OC [Fostamatinib] : reported relative viability = 0.954

The compound listed as O=C1NC(=O)[C@@H](c2cn3c4c(cccc24)CCC3)[C@@H]1c1c[nH]c2ccccc12 [Tivantinib] has a reported relative viability of 1.06

Measured relative viability of CCN(CC)CCNC(=O)c1c(C)[nH]c(/C=C2\C(=O)Nc3ccc(F)cc32)c1C [Sunitinib] : 0.425

Value of measured relative viability for the entry C[C@]12O[C@H](C[C@]1(O)CO)n1c3ccccc3c3c4c(c5c6ccccc6n2c5c31)CNC4=O [Lestaurtinib] : 0.56

Entry O=S(=O)(c1cccc2cnccc12)N1CCCNCC1 [Fasudil] — recorded relative viability = 0.987

Noted for CC(C)(C)c1nc(-c2cccc(NS(=O)(=O)c3c(F)cccc3F)c2F)c(-c2ccnc(N)n2)s1 [Dabrafenib] : its relative viability reads 0.938

Memo: CC[C@@H]1CN(C(=O)NCC(F)(F)F)C[C@@H]1c1cnc2cnc3[nH]ccc3n12 [Upadacitinib] , reported relative viability: 1.07

# relative viability of N#CC1(c2ccc(NC(=O)c3cccnc3NCc3ccncc3)cc2)CCCC1 [Apatinib] = 0.992
